src = the supplement of paper PMC6555819

Here the recorded PBM binding z-score is given for each entry.
- Tested on: LXRa:RXRa (NR concentration 270 nM, RXRa partner concentration 90 nM)
- Protocol: PBM binding z-score (relative to random genomic background probes); higher = stronger binding; sequences stand for … in GC…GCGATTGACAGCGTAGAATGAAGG
Value Kind: PBM binding z-score

- Macromolecule Sequence: "ATCGAAACGTCGAAGGTGAGTATACCCACCCGAA"
  Observed Measurement: -0.352
- Macromolecule Sequence: "CGAACTAGGTCAGAACAGGACAGTCAAGGATGAT"
  Observed Measurement: 1.06
- Macromolecule Sequence: "CAAACTAGGTCAAGGACAAAGTCGGTTTGTGCCA"
  Observed Measurement: 2.54
- Macromolecule Sequence: "CCTTACGGGTCACGAGGTTATAGGACGACGAGCG"
  Observed Measurement: 4.66
- Macromolecule Sequence: "CGAACTAGGTCAGGGACAGTGAATCTCCGCACGC"
  Observed Measurement: 0.726
- Macromolecule Sequence: "CCAAACAGGTGAAAGGTAACTCAGTCTGGTACGC"
  Observed Measurement: 0.809
- Macromolecule Sequence: "GCAGACAGGTGAAACGAAGGTAACTCAGGGTGGC"
  Observed Measurement: 0.296
- Macromolecule Sequence: "ATCGAAATGTCGAGGTGAGTATAGAGAAAGGGAA"
  Observed Measurement: -0.124
- Macromolecule Sequence: "CGAACTAGGTCATTGACACGACAGTGAATAGTAA"
  Observed Measurement: 3.65
- Macromolecule Sequence: "GCTTGTAGATCAAGGTTAAAAAAGACTAAGCTAA"
  Observed Measurement: 1.35
- Macromolecule Sequence: "ATATGTAGGTTAGCTGGGGTCATTGAGACTAGGC"
  Observed Measurement: 5.62
- Macromolecule Sequence: "ATCGAAAGGTCGCGGTGAGTATAGAGAAAGGGAA"
  Observed Measurement: 4.14
- Macromolecule Sequence: "CCTACTGGGCCAAAGCTCATTGATTCCAATGCTC"
  Observed Measurement: -0.522
- Macromolecule Sequence: "ATACCAAGGTGAACGTGAGGTCGTTGATACTAAC"
  Observed Measurement: 3.08
- Macromolecule Sequence: "CCTACTGCGCCACGAAAGGTCATTGATTCAGTGA"
  Observed Measurement: 5.05
- Macromolecule Sequence: "CGAACTAGGTCAGAACAGGAAAGTGAAGGATGAT"
  Observed Measurement: 0.447
- Macromolecule Sequence: "CGTCCAAGGTCAAGGTAAGTGAAAGAGACTCGAA"
  Observed Measurement: 5.23
- Macromolecule Sequence: "CCAGACAGGTGAAAGGTAACGCAGTCTGGTACGC"
  Observed Measurement: 0.83
- Macromolecule Sequence: "ATATGTAGGTTGGCTGGGGTCATTCAGACTAGGC"
  Observed Measurement: 3.56
- Macromolecule Sequence: "TCATATAGGTAAACGTGAAAGTCGAACGATATGA"
  Observed Measurement: 0.332
- Macromolecule Sequence: "ACTAGCAGGCCAAGTTTGGGCCACTCAAACAAAG"
  Observed Measurement: -0.716
- Macromolecule Sequence: "GGAACGTGGGCAAAGTTGATAGCATCTGTCGACG"
  Observed Measurement: -0.566
- Macromolecule Sequence: "GCTTACGGGTCAAAGGTTATAGCTTGAATAGAAT"
  Observed Measurement: 5.6
- Macromolecule Sequence: "TCTGTTAGTTGAAGGGCAACCGACGAGTCCGTTT"
  Observed Measurement: 0.866
- Macromolecule Sequence: "CCTCGGAGGACAACAGGAGGCCAGAGCTGCCAGA"
  Observed Measurement: -0.512
- Macromolecule Sequence: "TCTTGTAGATCAAGCAGGTGAAGAAAGCCTGAGT"
  Observed Measurement: 0.182
- Macromolecule Sequence: "GGAACGAGGGCCAAGTTGATAGCATCTGTCGACG"
  Observed Measurement: -0.341
- Macromolecule Sequence: "CCTCGGAGGACAACAGCAGGTCAGAGCTGCCAGA"
  Observed Measurement: 0.89
- Macromolecule Sequence: "TATACAGGGTCAAAGGCCAGTGTACGAATGTCGA"
  Observed Measurement: 6.1
- Macromolecule Sequence: "TTACCAAGGAGAGCTGAGGTCGTTGATCCAACTC"
  Observed Measurement: -0.0675
- Macromolecule Sequence: "TCGAGTAGGTTACCAATGGGCCATTCAGCTTTCT"
  Observed Measurement: 1.7
- Macromolecule Sequence: "CCTAGCAGGCCAATCTGTGTCACTCAAGGCTTGA"
  Observed Measurement: -0.198
- Macromolecule Sequence: "TCATATAGGTAAACAGGTGAAGGTCCGTAAGTTA"
  Observed Measurement: 0.84
- Macromolecule Sequence: "CAAACTAGGTCACGAAACGTCAAAGTCGAATGAC"
  Observed Measurement: 3.49
- Macromolecule Sequence: "CTCGAAAGGTCGTGCTCAGGTGAGTTTACCAAAC"
  Observed Measurement: 4.08
- Macromolecule Sequence: "CCTTACGGGCCACTCCAGGTTATAGCATCGGAGT"
  Observed Measurement: 3.23
- Macromolecule Sequence: "GCTAGTTGGTCAGTAAAAGGTCACACATCGGTCG"
  Observed Measurement: 4.12
- Macromolecule Sequence: "GCTAGCAGGCCATTTGAGTCACTCAATGACGGGC"
  Observed Measurement: -0.643
- Macromolecule Sequence: "GCTTTCGGGTCAAAGGTTATAGCATGAATAGAAT"
  Observed Measurement: 5.74
- Macromolecule Sequence: "CTAACTAGGTCAAAGGTCAAAGTCGAGCCAACCA"
  Observed Measurement: 7.32
- Macromolecule Sequence: "AGAAAGAGGTTACCAAAGATCAGGGAAACGCTTG"
  Observed Measurement: 6.51
- Macromolecule Sequence: "CCTAGCAGGCCAATCAGGGTCACTCAAGGCTTGA"
  Observed Measurement: 3.39
- Macromolecule Sequence: "CATACAGGGTCAGCTAGGCTAGAGTAGGGACGGC"
  Observed Measurement: 2.68
- Macromolecule Sequence: "CGTCAAAGTTCAACTAGGGTAACGTAAAGCACGC"
  Observed Measurement: 6.47
- Macromolecule Sequence: "TCATACAGGTAAATGCTAGGTGAAAGTCCGATCT"
  Observed Measurement: 0.892
- Macromolecule Sequence: "TCTTGTAGATCAGCAGGTTAATAAAGCTGGCCAA"
  Observed Measurement: 0.321
- Macromolecule Sequence: "TTACCAAAGTGAGCTGAGGTCGTTGATCCAACTC"
  Observed Measurement: 0.0425
- Macromolecule Sequence: "GCTGCTAGGTCTACTGATGGTCAGCTAAAGCTCG"
  Observed Measurement: -0.0634
- Macromolecule Sequence: "ACAGCCAGGTGAGTGAAGGTAACTCAGCTGGACG"
  Observed Measurement: -0.362
- Macromolecule Sequence: "CCTACTGGTCCACGAAAGGTCATTGATTCAGTGA"
  Observed Measurement: 4.86
- Macromolecule Sequence: "CGGCCAAGGTCAGCAGGTCAGTGAAAGCGACGTG"
  Observed Measurement: 3.58
